Recorded values, source ChEMBL document CHEMBL3286216.

Assay: Cytotoxicity against human MT4 cells by MTT assay
Type: cell-based

compound	display_unit	modifier	CC50
CC(C)(C)c1ccc(C(Cl)c2ccnc(Nc3ccc(C#N)cc3)n2)cc1 (centres undefined)	µM	=	32.9
Cc1cc(C(Cl)c2ccc(C(C)(C)C)cc2)nc(Nc2ccc(C#N)cc2)n1 (centres undefined)	µM	=	30.3
N#Cc1ccc(Nc2nccc(C(Cl)c3ccc(F)cc3)n2)cc1 (centres undefined)	µM	=	35.4
Cc1ccc(C(Cl)c2ccnc(Nc3ccc(C#N)cc3)n2)cc1 (centres undefined)	µM	=	49.7
Cc1cnc(Nc2ccc(C#N)cc2)nc1C(Cl)c1ccc(C(C)(C)C)cc1 (centres undefined)	µM	=	28.7
Cc1cc(C(Cl)c2ccc(Br)cc2)nc(Nc2ccc(C#N)cc2)n1 (centres undefined)	µM	=	31.9
Cc1cnc(Nc2ccc(C#N)cc2)nc1C(Cl)c1ccc(Br)cc1 (centres undefined)	µM	=	10.3
N#Cc1ccc(Nc2nccc(C(Cl)c3cccc(Br)c3)n2)cc1 (centres undefined)	µM	=	30.4
Cc1cc(C#N)cc(C)c1Oc1nc(Nc2ccc(C#N)cc2)nc(N)c1Br [ETRAVIRINE]	µM	=	14.2
Cc1cc(C(Cl)c2ccc(F)cc2)nc(Nc2ccc(C#N)cc2)n1 (centres undefined)	µM	=	31.1
Cc1cnc(Nc2ccc(C#N)cc2)nc1C(Cl)c1ccc(F)cc1 (centres undefined)	µM	=	30.8
O=C1Nc2ccc(Cl)cc2[C@@](C#CC2CC2)(C(F)(F)F)O1 [EFAVIRENZ]	µM	>	6.3
N#Cc1ccc(Nc2nccc(C(Cl)c3cccc4ccccc34)n2)cc1 (centres undefined)	µM	=	11.3
Nc1ccn([C@@H]2CS[C@H](CO)O2)c(=O)n1 [LAMIVUDINE]	µM	>	87.2
N#Cc1ccc(Nc2nccc(C(Cl)c3ccc(Cl)cc3)n2)cc1 (centres undefined)	µM	=	36.1
N#Cc1ccc(Nc2nccc(C(Br)c3ccccc3)n2)cc1 (centres undefined)	µM	=	69
CC(C)Nc1cccnc1N1CCN(C(=O)c2cc3cc(NS(C)(=O)=O)ccc3[nH]2)CC1 [DELAVIRDINE]	µM	>	43.8
N#Cc1ccc(Nc2nccc(C(Cl)c3cccc(Cl)c3)n2)cc1 (centres undefined)	µM	=	24.3
Cc1cn([C@H]2C[C@H](N=[N+]=[N-])[C@@H](CO)O2)c(=O)[nH]c1=O [ZIDOVUDINE]	µM	>	93.5
COc1ccc(C(Cl)c2ccnc(Nc3ccc(C#N)cc3)n2)cc1 (centres undefined)	µM	≥	33.6
N#Cc1ccc(Nc2nccc(C(Cl)c3ccccc3)n2)cc1 (centres undefined)	µM	=	37.8
N#Cc1ccc(Nc2nccc(C(Cl)c3ccc(Br)cc3)n2)cc1 (centres undefined)	µM	=	32.5
N#Cc1ccc(Nc2nccc(C(Cl)c3cccc(F)c3)n2)cc1 (centres undefined)	µM	=	36.8
Cc1ccc(C(Br)c2ccnc(Nc3ccc(C#N)cc3)n2)cc1 (centres undefined)	µM	=	31.5
